# KIDNEY_R values compiled below
# Species: Rattus norvegicus
# METHOD: Open TG-GATES - Regimen: Single
# Type: toxicity, organism-based, Sprague-Dawley
# Parameters: regimen Single, gender Male, age 6 weeks
# TEST_PARAMETERS: in vivo, po, 300 mg/kg, 3 h, tissue Kidney, route gavage, dose level Middle
// note: answer is a bare numeric in g

Example results:
>>> readout_value("O=C(O)c1cc(/N=N/c2ccc(S(=O)(=O)Nc3ccccn3)cc2)ccc1O")
0.9
>>> readout_value("Clc1ccccc1CN1CCc2sccc2C1")
1
>>> readout_value("O=C(O)c1cn(C2CC2)c2cc(N3CCNCC3)c(F)cc2c1=O")
0.9
>>> readout_value("CCc1cc(C(N)=S)ccn1 [ETHIONAMIDE]")
1.1

Could you share which KIDNEY_R value was measured for C[C@H](CS)C(=O)N1CCC[C@H]1C(=O)O ?
1

###

# Species on record: Rattus norvegicus
# METHOD: Open TG-GATES - Regimen: Single
# Type: toxicity, organism-based, Sprague-Dawley
# Parameters: regimen Single, gender Male, age 6 weeks
# TEST_PARAMETERS: in vivo, po, 300 mg/kg, 9 h, tissue Plasma, route gavage, dose level Middle
Tag: 1 if measured TC is not below 70 mg/dL, 0 if it is.

Solved cases (3 shown):
>>> label_value("O=C(O)c1cn(C2CC2)c2cc(N3CCNCC3)c(F)cc2c1=O")
1
>>> label_value("O=C(O)c1cc(/N=N/c2ccc(S(=O)(=O)Nc3ccccn3)cc2)ccc1O")
1
>>> label_value("CCc1cc(C(N)=S)ccn1 [ETHIONAMIDE]")
0

Could you now consider this next compound?
Could you verify whether the entry C[C@H](CS)C(=O)N1CCC[C@H]1C(=O)O shows TC of no less than 70 mg/dL?
1

###

# Species: Rattus norvegicus
# METHOD: Open TG-GATES - Regimen: Single
# Assay type: toxicity, organism-based, Sprague-Dawley
# Set-up: regimen Single, gender Male, age 6 weeks
# TEST_PARAMETERS: in vivo, po, 1000 mg/kg, 9 h, tissue Blood, route gavage, dose level High
Output y for Lym not less than 80%; output n otherwise.

>>> label_value("O=C(O)c1cc(/N=N/c2ccc(S(=O)(=O)Nc3ccccn3)cc2)ccc1O [SULFASALAZINE]")
"n"
>>> label_value("O=C(O)c1cn(C2CC2)c2cc(N3CCNCC3)c(F)cc2c1=O [CIPROFLOXACIN]")
"y"
>>> label_value("C[C@H](CS)C(=O)N1CCC[C@H]1C(=O)O [CAPTOPRIL]")
"n"

Kindly consider the entry below.
Is the recorded value of Lym equal to or greater than 80% for this molecule? CCc1cc(C(N)=S)ccn1 [ETHIONAMIDE]
n

###

# Species: Rattus norvegicus
# METHOD: Open TG-GATES - Regimen: Daily Repeat
# Format: toxicity, organism-based, Sprague-Dawley
# Parameters: regimen Daily Repeat, gender Male, age 6 weeks
# TEST_PARAMETERS: in vivo, po, 0 mg/kg, 72 h, tissue Blood, route gavage, dose level Control, time 3 day
Reported Ret is given for each of the following compounds.
Number in %, nothing else.

In the examples that follow, each entry is paired with its recorded Ret.
>>> readout_value("CCc1cc(C(N)=S)ccn1 [ETHIONAMIDE]")
12.2
>>> readout_value("CSc1ccc2c(c1)N(CCC1CCCCN1C)c1ccccc1S2 (centres undefined)")
8.1
>>> readout_value("O=C(O)c1cn(C2CC2)c2cc(N3CCNCC3)c(F)cc2c1=O")
8.5
>>> readout_value("CN(C)CCC=C1c2ccccc2CCc2ccccc21")
7.7
>>> readout_value("NC(=O)N1c2ccccc2C=Cc2ccccc21 [CARBAMAZEPINE]")
4.9
>>> readout_value("Clc1ccccc1CN1CCc2sccc2C1")
6.2
>>> readout_value("CO[C@H]1/C=C/O[C@@]2(C)Oc3c(C)c(O)c4c(O)c(c(/C=N/N5CCN(C)CC5)c(O)c4c3C2=O)NC(=O)/C(C)=C\\C=C\\[C@H](C)[C@H](O)[C@@H](C)[C@@H](O)[C@@H](C)[C@H](OC(C)=O)[C@@H]1C")
6.4
>>> readout_value("O=C(O)c1cc(/N=N/c2ccc(S(=O)(=O)Nc3ccccn3)cc2)ccc1O")
6.3

So what does the record say about Ret for NC(=O)N/N=C/c1ccc([N+](=O)[O-])o1 ?
8.9

###

# Species: Rattus norvegicus
# METHOD: Open TG-GATES - Regimen: Single
# Type: toxicity, organism-based, Sprague-Dawley
# Parameters: regimen Single, gender Male, age 6 weeks
# TEST_PARAMETERS: in vivo, po, 1000 mg/kg, 6 h, tissue Plasma, route gavage, dose level High
ENDPOINT: PL (mg/dL)
Enter your answer as a number in mg/dL; do not include the unit.

Illustrative cases are given below, each with its answer.
>>> readout_value("O=C(O)c1cc(/N=N/c2ccc(S(=O)(=O)Nc3ccccn3)cc2)ccc1O")
144
>>> readout_value("C[C@H](CS)C(=O)N1CCC[C@H]1C(=O)O")
112.8
>>> readout_value("CCc1cc(C(N)=S)ccn1 [ETHIONAMIDE]")
111.8
>>> readout_value("Clc1ccccc1CN1CCc2sccc2C1")
149.8

Continue with the molecule presented below.
Quick check: PL of O=C(O)c1cn(C2CC2)c2cc(N3CCNCC3)c(F)cc2c1=O ?
137.2

###

# Species: Rattus norvegicus
# METHOD: Open TG-GATES - Regimen: Daily Repeat
# Format: toxicity, organism-based, Sprague-Dawley
# Parameters: regimen Daily Repeat, gender Male, age 6 weeks
# TEST_PARAMETERS: in vivo, po, 0 mg/kg, […], tissue Blood, route gavage, dose level Control, time 14 day
Recorded Plat values for a group of compounds are listed next.
Just so you know, I need the unit written after the number.

See these solved cases before continuing.
>>> readout_value("O=C(O)c1cc(/N=N/c2ccc(S(=O)(=O)Nc3ccccn3)cc2)ccc1O")
"115.1 x10_4/uL"
>>> readout_value("NC(=O)N/N=C/c1ccc([N+](=O)[O-])o1")
"121.6 x10_4/uL"
>>> readout_value("C[C@H](CS)C(=O)N1CCC[C@H]1C(=O)O")
"112.4 x10_4/uL"
>>> readout_value("Cn1c(=O)c2[nH]cnc2n(C)c1=O.O")
"114.6 x10_4/uL"

Consider the record given below.
Which Plat value is on record for NC(=O)N1c2ccccc2C=Cc2ccccc21 [CARBAMAZEPINE] ?
129 x10_4/uL

###

Readings of TBIL for the listed compounds
# Species on record: Rattus norvegicus
# METHOD: Open TG-GATES - Regimen: Single
# Type: toxicity, organism-based, Sprague-Dawley
# Parameters: regimen Single, gender Male, age 6 weeks
# TEST_PARAMETERS: in vivo, po, 0 mg/kg, 6 h, tissue Plasma, route gavage, dose level Control
Express the result in mg/dL but write the number alone.

Consider the reported TBIL for these compounds:
>>> readout_value("Clc1ccccc1CN1CCc2sccc2C1")
0.1
>>> readout_value("Cn1c(=O)c2[nH]cnc2n(C)c1=O.O")
0.024
>>> readout_value("CSc1ccc2c(c1)N(CCC1CCCCN1C)c1ccccc1S2 (configuration not stated)")
0.4
>>> readout_value("NC(=O)N/N=C/c1ccc([N+](=O)[O-])o1")
0.062
>>> readout_value("C[C@H](CS)C(=O)N1CCC[C@H]1C(=O)O")
0.3

// returns reported TBIL for input O=C(O)c1cn(C2CC2)c2cc(N3CCNCC3)c(F)cc2c1=O
0.4

Please look up its TBIL: CC(=O)Oc1ccccc1C(=O)O
0.1

Look up TBIL: COc1ccc(Cc2nccc3cc(OC)c(OC)cc23)cc1OC
0.01

Which TBIL is reported for this compound? CCc1cc(C(N)=S)ccn1 [ETHIONAMIDE]
0.4

Quick one: TBIL for O=C(O)c1cc(/N=N/c2ccc(S(=O)(=O)Nc3ccccn3)cc2)ccc1O ?
0.1

Please give the measured TBIL for this compound: NC(=O)N1c2ccccc2C=Cc2ccccc21 [CARBAMAZEPINE]
0.1

What measured TBIL goes with CN(C)CCC=C1c2ccccc2CCc2ccccc21 ?
0.06

###

Below is a list of entries, each paired with its recorded A/G value.
# Species on record: Rattus norvegicus
# METHOD: Open TG-GATES - Regimen: Single
# Assay type: toxicity, organism-based, Sprague-Dawley
# Set-up: regimen Single, gender Male, age 6 weeks
# TEST_PARAMETERS: in vivo, po, 0 mg/kg, 24 h, tissue Plasma, route gavage, dose level Control
Response field accepts a number only; no unit should be typed.

Use these answered entries as a reference point.
>>> readout_value("COc1cc2c(c3oc(=O)c4c(c13)CCC4=O)[C@@H]1C=CO[C@@H]1O2")
1
>>> readout_value("NC(=O)N/N=C/c1ccc([N+](=O)[O-])o1")
0.9
>>> readout_value("CCc1cc(C(N)=S)ccn1 [ETHIONAMIDE]")
1.9
>>> readout_value("Cn1c(=O)c2[nH]cnc2n(C)c1=O.O")
1.2
>>> readout_value("COc1ccc(Cc2nccc3cc(OC)c(OC)cc23)cc1OC")
1.3
>>> readout_value("O=C(O)c1cc(/N=N/c2ccc(S(=O)(=O)Nc3ccccn3)cc2)ccc1O")
1.5

// next item, A/G requested
Name the recorded A/G for CN(C)CCC=C1c2ccccc2CCc2ccccc21 .
0.8

// provenance: ChEMBL document CHEMBL3885861
